test system: BT-549 breast; assay: NCI tumour cell line growth inhibition, 48 h; in the data active means GI50 below about 0.43 µM; inactive means the rest
Would you mind answering with one of these outcomes? 1 = active, 0 = inactive

Any idea what this test logged for Nc1n[nH]c2ccc([C@@H]3Nc4ccc5[nH]ncc5c4[C@H]4C5C=CC(C5)[C@@H]34)cc12 (stereo not given in full) ?
1

Kindly provide the recorded test outcome for the following compound: FC(F)(F)c1ccc(-c2cnc(Cl)nc2NCc2cc(C(F)(F)F)cc(C(F)(F)F)c2)cc1
0

Could you check what this test reported for COC(=O)C1=C(OC(=O)c2ccc(Cl)cc2)C(C(=O)OC)[C@@]2(O)[C@@H](C(=O)OC)C(c3ccccc3Cl)C[C@@H]1[C@@H]2C(=O)OC (stereo not given in full) ?
0

How was CSc1ccccc1C#Cc1ccccc1C#CCCCCO classified in this test?
0

Outcome logged for COc1ccc2c(c1)C(C)Cc1c(Cl)nc(C)nc1N2C (stereo not given) in this assay:
0

State the result this test recorded for O=C(CN1CCN(c2ccccc2)CC1)N1CCN(c2nnc(-c3ccc(Cl)cc3)c(-c3ccc(Cl)cc3)n2)CC1 .
0

Call for entry Cc1cn2c(/C=N/Nc3ccccn3)c(-c3ccc(Cl)c([N+](=O)[O-])c3)nc2s1 :
0

Hi team, can someone confirm the assay call for N=C(N)c1ccc(COc2ccccc2OCc2ccc(C(=N)N)cc2)cc1 ?
0

Name the outcome recorded for O=C(CCCSc1nc(-c2ccccc2)cc(-c2ccc(Cl)cc2)n1)NO in the assay.
0

Look up the recorded call for Cn1cc(-c2ccc(-c3cn(C)c4ccc(Cl)cc34)s2)c2cc(Cl)ccc21 in this test.
0
